Every entry's value here was drawn from PubChem BioAssay AID1159580.

// values below are reported normalized growth
Assay: chemical genetic growth profiling, strain panel (AID 1159580);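 note: tested at 20 µM; growth read once vehicle control cultures reached saturation at 30 °C; 1 = growth at the plate median or of vehicle wells; lower values mean less growth of the strain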
Settings: S. cerevisiae deletion strains, growth OD, locus YPL241C, strain CIN2, hits give low values
In all, about 5,500 compounds went through this assay and about 2,000 (36%) were called active. Roughly 18% stayed inconclusive and do not appear here. The list shows a part of the results.
Simply state the number, no unit and no words.

A selection of reference data follows.
compound	normalized growth
NCCS(=O)(=O)O	1
O=C(O)c1cncc(C#Cc2ccccc2)c1	1.01
NCCCS(=O)(=O)O	0.997
CCn1cc(C(=O)O)c(=O)c2cc(F)c(N3CCNCC3)nc21	1.01
COC(=O)c1ccc(Cl)cc1NS(=O)(=O)c1ccc(OC)c(OC)c1	1.01

### Prompt Request the reported normalized growth associated with COc1c(N2CCNC(C)C2)c(F)cc2c(=O)c(C(=O)O)cn(C3CC3)c12 (stereo not drawn)
### Response 1.01

### Prompt Request the reported normalized growth associated with CCC(C)C(=O)O[C@@H]1C[C@@]2(C)[C@H](c3ccoc3)OC(=O)CC23OC2(C)O[C@]14[C@]1(C)[C@@H](CC(=O)OC)C5(C)CC1(O)[C@](O)(C5OC(=O)C1(C)OC1C)[C@@H](OC(C)=O)[C@]34O2 (stereo partly drawn)
### Response 1.01

### Prompt Request the reported normalized growth associated with C[C@@H]1CC(Cl)CC[C@H]1C(=O)OC(C)(C)C (stereo partly drawn)
### Response 0.997

### Prompt Request the reported normalized growth associated with CN(C)C=Nc1ncccc1OCc1ccc(Cl)c(Cl)c1
### Response 0.888

### Prompt Request the reported normalized growth associated with COC(=O)CCCCCCCC(=O)Nc1ccc(Cl)cc1
### Response 0.991

### Prompt Request the reported normalized growth associated with O=C(CC1NCCN(Cc2ccccc2)C1=O)Nc1ccc(Cl)cc1 (stereo not drawn)
### Response 1

### Prompt Request the reported normalized growth associated with Cc1onc(-c2c(Cl)cccc2Cl)c1-c1nc(-c2ccc3c(c2)OCCO3)cs1
### Response 1.02

### Prompt Request the reported normalized growth associated with CN1CCC(OC(c2ccccc2)c2ccccc2)CC1
### Response 0.991

### Prompt Request the reported normalized growth associated with Clc1cccc(N2CCNCC2)c1
### Response 0.982

### Prompt Request the reported normalized growth associated with COc1ccc(/C=C2\CC/C(=C\c3ccc(OC)c(OC)c3)C2=O)cc1OC
### Response 0.974

### Prompt Request the reported normalized growth associated with O=C1NCC2(CCN(CCc3ccccc3)CC2)O1
### Response 1.01

### Prompt Request the reported normalized growth associated with C=C[C@@](C)(O)CCC1C(=C)C[C@H](O)C2C(C)(C)CCCC12C (stereo partly drawn)
### Response 1.01

### Prompt Request the reported normalized growth associated with O=C(CSc1ccc(Cl)cc1)Nc1ccc(F)cc1
### Response 0.849
